Ref: the supplement of paper PMC10724198

Test system: Saccharomyces cerevisiae
Test: protein stability index of tFT-peptide fusion (C-terminal peptide) (PSI (0-1 scale)); higher = more stable (slower turnover)
Conditions: genetic background: wild type; temperature: 37 C
Listed here are sequences together with their documented protein stability index.
Please respond with just the number, no unit label.

# Sequence chain, Quantitative result
records = [
    ("SSVCVLVSCVLG", 0.512),
    ("VWLFSWSVVGGT", 0.507),
    ("RGWWWFVVVLCR", 0.295),
    ("FSPSPVFVTCRV", 0.296),
    ("TRPHPLRRVFIF", 0.433),
]

Query the reported protein stability index for Saccharomyces cerevisiae; item: VFRHFYTFLALC
0.132

Then TGGGGRVSLGGG ?
0.416

Then VCLLVSVCLLWL ?
0.309

Then SGPCSPRNLRRL ?
0.719

Then SLPCCKVVFCVI ?
0.515

Then VRVLAALVLCVV ?
0.322

Then LLPSNFLLLVGV ?
0.286

Then WCLLGVPVRVVV ?
0.441

Then IISPLRLLPLFF ?
0.515

Then SFTRYIFFLMFF ?
0.456

Then NASWAFLCYFCV ?
0.557

* * *

Tested on: Saccharomyces cerevisiae
Experiment: protein stability index of tFT-peptide fusion (C-terminal peptide) (PSI (0-1 scale)); higher = more stable (slower turnover)
Conditions: genetic background: doa10 deletion; temperature: 30 C
Using protein stability index as the sorting value, the categories are group A: < 0.2; group B: ≥ 0.2 and < 0.3; group C: ≥ 0.3

The examples below pair each entry with its known result.
# Sequence chain, Class
records = [
    ("SFLACFVLAFFC", "group B"),
    ("VCLFSVCLWFVS", "group A"),
    ("WLGCVLIGWHVL", "group A"),
    ("AWVLISNRRRIM", "group A"),
    ("PLLVVPVPRALY", "group B"),
]

# bin lookup: classify RFRFRRTCLYAT by its protein stability index
group A

Then FGVECDLCLFCC ?
group B

* * *

Tested on: Saccharomyces cerevisiae
Assay: protein stability index of tFT-peptide fusion (C-terminal peptide) (PSI (0-1 scale)); higher = more stable (slower turnover)
Settings: genetic background: cdc53-1; temperature: 37 C
Assay readout: protein stability index
Please respond with just the number, no unit label.

# Sequence chain, protein stability index
records = [
    ("LCVFFRCFFVGG", 0.588),
    ("LVHLVLYVAVFC", 0.411),
    ("KKKTKYSKDKLC", 0.696),
]

# protein stability index lookup, item LVVGCFLTFCFG
0.366

Then TGGGGRVSLGGG ?
0.427

Then RVYLLGLFVRSG ?
0.61

Then WHFPCPPLPCPV ?
0.429

Then IFRLVRVVRSSS ?
0.688

Then RFRFRRTCLYAT ?
0.588

Then RHIRGLNLIKLI ?
0.672

Then DRQMRCVHIHYL ?
0.715

Then CCMLCVVAWSGV ?
0.517

Then VWSVSVTIVGRR ?
0.573

* * *

Test system: Saccharomyces cerevisiae
Assay: protein stability index of tFT-peptide fusion (C-terminal peptide) (PSI (0-1 scale)); higher = more stable (slower turnover)
Details: genetic background: wild type; temperature: 30 C
Listed here are sequences together with their documented protein stability index.
Please respond with just the number, no unit label.

# Sequence chain, protein stability index
data = [
    ("HPPTSPGGLRQP", 0.686),
]

# protein stability index lookup, item HHPKTCHHLSRA
0.685

Then QSCQSKGSEVGE ?
0.696

Then LGCVLGLLVFGG ?
0.601

Then QKTKEKKKKKRE ?
0.708

Then PAPPPQSPAPYR ?
0.704

* * *

Tested on: Saccharomyces cerevisiae
Experiment: protein stability index of tFT-peptide fusion (C-terminal peptide) (PSI (0-1 scale)); higher = more stable (slower turnover)
Conditions: genetic background: wild type; temperature: 30 C
Using protein stability index as the sorting value, the categories are low band (below 0.6), middle band (0.6 to below 0.7), high band (0.7 or more)

# Sequence chain, Class
rows = [
    ("NIKLKVCKEEMR", "low band"),
    ("YGGCGFEEEGVR", "high band"),
    ("PPPGSPLRPSRL", "high band"),
    ("CWSCLRGYRFQT", "middle band"),
    ("IRSLSGPLSRTF", "middle band"),
    ("PHPPRPSTPPPT", "middle band"),
    ("HATFSLFLASCY", "middle band"),
    ("GGGAADGGGGRG", "middle band"),
    ("GRLRLGVLCGGV", "low band"),
    ("RSAPPPPPLRLD", "high band"),
]

# bin lookup: classify FLPFRPFPPFSA by its protein stability index
middle band

Then PPPDKTPERRPC ?
middle band

Then PCPRIPSSRRLA ?
low band

* * *

System: Saccharomyces cerevisiae
Assay: protein stability index of tFT-peptide fusion (C-terminal peptide) (PSI (0-1 scale)); higher = more stable (slower turnover)
Conditions: genetic background: wild type; temperature: 30 C
Assay readout: protein stability index
Please respond with just the number, no unit label.

Here is how some sequences turned out for protein stability index.
# Sequence chain, protein stability index
rows = [
    ("VGSGEWTRAMNR", 0.673),
    ("PLSPPPPPPLPA", 0.71),
    ("RIHQRTSLHKAH", 0.609),
    ("GALWVLGVVVGG", 0.467),
]

Query the reported protein stability index for Saccharomyces cerevisiae; item: QGVLKYPRPSPP
0.707

Then PPRRPPPPPPLP ?
0.717

Then PSFLLPPLPPPT ?
0.718

Then TRSGGNGYERVC ?
0.667

Then VEDRTTNVLNIT ?
0.682

Then GGGGGGGEWVGG ?
0.656

Then SYCRPPPLPGLP ?
0.628

* * *

Test system: Saccharomyces cerevisiae
Experiment: protein stability index of tFT-peptide fusion (C-terminal peptide) (PSI (0-1 scale)); higher = more stable (slower turnover)
Settings: genetic background: das1 deletion; temperature: 30 C
Assay readout: protein stability index
Please respond with just the number, no unit label.

Here is how some sequences turned out for protein stability index.
# Sequence chain, protein stability index
records = [
    ("DVCGVRYVLFVL", 0.49),
    ("GFISKLIIKLAA", 0.43),
    ("LCLLIHFWISHL", 0.295),
]

# protein stability index lookup, item QWTVRNQGVMQR
0.652

Then VLYCRSCFLRVS ?
0.436

Then VVIYWFLPIIFA ?
0.163

Then YFIVVSWFLVCW ?
0.114

* * *

Test system: Saccharomyces cerevisiae
Experiment: protein stability index of tFT-peptide fusion (C-terminal peptide) (PSI (0-1 scale)); higher = more stable (slower turnover)
Details: genetic background: das1 deletion; temperature: 30 C
Listed here are sequences together with their documented protein stability index.
Please respond with just the number, no unit label.

Here is how some sequences turned out for protein stability index.
# Sequence chain, Target desc, Quantitative result
data = [
    ("SELENKFSNQES [FPY1 C-terminal 12 aa]", "Saccharomyces cerevisiae", 0.705),
    ("AKDAFTSTLPTH [GFD2 C-terminal 12 aa]", "Saccharomyces cerevisiae", 0.7),
    ("FAQNTNKDVELN [NGG1 C-terminal 12 aa]", "Saccharomyces cerevisiae", 0.682),
    ("DLVKASSTLNVS [SDL1 C-terminal 12 aa]", "Saccharomyces cerevisiae", 0.682),
]

Query the reported protein stability index for Saccharomyces cerevisiae; item: STAVRSIDALKN [HSP31 C-terminal 12 aa]
0.701

Then QKDSRGKKKIKK [YMR114C C-terminal 12 aa] ?
0.691

Then IKPSWENEKNIS [ARG2 C-terminal 12 aa] ?
0.69

Then EALPPCLQIFRP [YDR354C-A C-terminal 12 aa] ?
0.701

Then FLSMTYASLVNK [YLR294C C-terminal 12 aa] ?
0.713

Then ADKELSFEINVK [BRR2 C-terminal 12 aa] ?
0.695

Then NRIVSLKDATSK [GLN4 C-terminal 12 aa] ?
0.689

Then EDDFGPKPKFFI [SWE1 C-terminal 12 aa] ?
0.71

Then NILKVEKRAVLE [PMT1 C-terminal 12 aa] ?
0.684

Then TYNSYTEPEELR [FMP27 C-terminal 12 aa] ?
0.692

Then FGIWNTDMSVWS [YBL081W C-terminal 12 aa] ?
0.699

Then EKKYSNNTNAIQ [CTI6 C-terminal 12 aa] ?
0.68

Then DNDDDAGAVPTS [CDC13 C-terminal 12 aa] ?
0.711

Then NNVPPIHPSLLH [NGR1 C-terminal 12 aa] ?
0.712

Then ENLRLKLKNFLR [MSH5 C-terminal 12 aa] ?
0.683

Then LKDEKRGDNVLA [THS1 C-terminal 12 aa] ?
0.698

Then FASNKKVTASLR [AZR1 C-terminal 12 aa] ?
0.696

Then TKISIRKAPKFF [MRPL31 C-terminal 12 aa] ?
0.701

Then SYNDPALADFMP [NRE1 C-terminal 12 aa] ?
0.715

Then SDDNNDENMDLD [SSE2 C-terminal 12 aa] ?
0.694

Then MITCLTAALKLN [AVT6 C-terminal 12 aa] ?
0.687

Then NASYTKKYVPHP [YPR059C C-terminal 12 aa] ?
0.682

Then ELDEIANSLENL [TPM2 C-terminal 12 aa] ?
0.694

Then TVIFSCVPGRRV [RAX1 C-terminal 12 aa] ?
0.72

Then LASDFIGRGYDD [WTM2 C-terminal 12 aa] ?
0.696

Then MVTSIRSTPNYI [MED6 C-terminal 12 aa] ?
0.694

Then RIRQEIIKTKLL [EMP47 C-terminal 12 aa] ?
0.68
